Values compiled from patent US20180185450A1.

- TARGET_OF_ASSAY: human glucagon receptor (human, UniProt P47871 26-477)
- Sequence (P47871 26-477): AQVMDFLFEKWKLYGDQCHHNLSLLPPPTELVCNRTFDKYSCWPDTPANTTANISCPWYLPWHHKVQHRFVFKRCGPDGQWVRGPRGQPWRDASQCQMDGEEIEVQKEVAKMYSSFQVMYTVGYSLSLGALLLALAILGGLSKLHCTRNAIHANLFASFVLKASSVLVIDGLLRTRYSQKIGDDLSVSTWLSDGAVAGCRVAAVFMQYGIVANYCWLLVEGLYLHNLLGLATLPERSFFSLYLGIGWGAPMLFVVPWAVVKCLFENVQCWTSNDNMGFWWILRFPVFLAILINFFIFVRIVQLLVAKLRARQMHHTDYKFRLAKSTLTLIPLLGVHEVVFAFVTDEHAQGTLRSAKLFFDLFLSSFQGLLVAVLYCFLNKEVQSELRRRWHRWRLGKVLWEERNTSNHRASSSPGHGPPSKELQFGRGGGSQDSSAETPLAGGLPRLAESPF
- TEST_SUMMARY: cell-based or functional assay
Numbered stars: 1 amine (or outer) side, 2 acyl side, 3 side chain; on linkers, the order of the positions; unused ones are H or OH. Square brackets hold non-standard residues; d marks the D form. Side chains are listed from the residue outwards. Ends that are not written are not given here. γGlu = O=C(O)[C@H](CCC(=O)[*:2])N[*:1]; x53 = not defined here; Aib = CC(C)(N)C(=O)O
Please use 1 for EC50 hGlucagon-R (cAMP) under 200 pM and -1 for everything else, ties included.

Hello, is EC50 hGlucagon-R (cAMP) of the following binder strictly smaller than 200 pM? H[Aib]QGTFTSDLSKQK([γGlu-x53])ES[Aib]AAQDFIEWLKAGGPSSGAPPPS-NH2 (reading uncertain) [SEQ ID NO: 13] -1

Hello, is EC50 hGlucagon-R (cAMP) of the following binder strictly smaller than 200 pM? HXQGTFTSDLSKQKESKAAQDFIEWLKAGGPSSGAPPPS (dSer at 2; K(x53) at 14; C-terminal NH2) [SEQ ID NO: 32] 1

Hello, is EC50 hGlucagon-R (cAMP) of the following binder strictly smaller than 200 pM? HXQGTFTSDLSKQKESRRAQDFIEWLKNTGPSSGAPPPS (dSer at 2; K(γE-x53) at 14; C-terminal NH2) [SEQ ID NO: 96] 1

Hello, is EC50 hGlucagon-R (cAMP) of the following binder strictly smaller than 200 pM? HXQGTFTSDLSKQKESRRAQDFIEWLKRXGPSSGAPPPS (dSer at 2; K(γE-x53) at 14; dAla at 29; C-terminal NH2) [SEQ ID NO: 126] 1

Hello, is EC50 hGlucagon-R (cAMP) of the following binder strictly smaller than 200 pM? HXQGTFTSDLSKQKDSRRAQDFIEWLKNGGPSSGAPPPS (dSer at 2; K(γE-x53) at 14; C-terminal NH(benzyl)) [SEQ ID NO: 99] 1

Hello, is EC50 hGlucagon-R (cAMP) of the following binder strictly smaller than 200 pM? HXQGTFTSDLSKQKEEKKAKLFIEWLKAGGPSSGAPPPS (dSer at 2; K(γE-x53) at 14; C-terminal NH2) [SEQ ID NO: 23] 1
